- study.target: SARS-CoV spike (S) (SARS-CoV, UniProt P59594 14-1195)
- measurement.description: SPR, VHH over immobilised S
readout.name: pKd
Keep it numeric: pKd is minus log10 of the concentration in mol/L.

Identify measured pKd corresponding to NRCoV2-11 VHH (VHH) VHH: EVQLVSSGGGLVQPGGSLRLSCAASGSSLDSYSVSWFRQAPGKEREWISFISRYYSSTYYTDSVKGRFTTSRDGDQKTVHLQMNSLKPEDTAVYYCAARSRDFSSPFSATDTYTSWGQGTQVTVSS
10.85

Give the reported pKd for this binder. NRCoV2-S2G4 VHH (VHH) VHH: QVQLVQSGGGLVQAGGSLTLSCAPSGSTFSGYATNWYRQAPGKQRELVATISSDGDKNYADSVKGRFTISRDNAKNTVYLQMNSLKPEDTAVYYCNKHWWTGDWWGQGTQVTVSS
9.10

Tell me measured pKd for NRCoV2-MRed04 VHH (VHH) VHH: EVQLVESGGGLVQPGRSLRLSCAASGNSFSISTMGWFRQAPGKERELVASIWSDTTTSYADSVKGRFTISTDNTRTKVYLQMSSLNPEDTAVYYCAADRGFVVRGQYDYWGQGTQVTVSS please.
6.52
